# Tested on: NCI-H226
# ASSAY_REMARKS: NCI tumour cell line growth inhibition, 48 h
Calls of active or inactive are those of the source. Cut-off read from the data, not from the text of the source: active = GI50 up to about 1.1 µM and inactive = higher.
Kindly state GI50 for each of the entries shown.

Recorded result, CCOC(=O)CCCn1cc(C(=O)OC)nn1 , GI50: > 100 µM (inactive)

Recorded result, CCCCCOC(=O)C(=O)Nc1[nH]nnc1C(N)=O , GI50: > 100 µM (inactive)

Recorded result, Fc1nc(F)nc(-c2c3ccccc3c3n2CCS3)n1 , GI50: > 100 µM (inactive)

Recorded result, O=C(Oc1ccc2c(-c3ccccc3)c(C(=O)Nc3ccc(Cl)cc3)c(=O)oc2c1)c1ccccc1 , GI50: > 100 µM (inactive)

Recorded result, CCOC(=O)c1csc(C(CSCc2ccc(OC)cc2)N2C(=O)c3ccccc3C2=O)n1 (stereo unspecified) , GI50: > 100 µM (inactive)

Recorded result, Cc1ccc2cccc(OC(=O)c3cc4c(cc3Cl)Sc3nccn3S4(=O)=O)c2n1 , GI50: 21 µM (inactive)

* * *

Kindly state GI50 for each of the entries shown.
# Tested on: SK-OV-3
# ASSAY_REMARKS: NCI tumour cell line growth inhibition, 48 h
Calls of active or inactive are those of the source. Cut-off read from the data, not from the text of the source: active = GI50 up to about 1.1 µM and inactive = higher.

Sample O=C1c2ccccc2C(=O)c2c1ccc1conc21 , system: SK-OV-3. Its GI50 is 6.46 µM (inactive)

Sample CCOC(=O)c1csc(C(CSCc2ccc(OC)cc2)N2C(=O)c3ccccc3C2=O)n1 (stereo unspecified) , system: SK-OV-3. Its GI50 is > 100 µM (inactive)

Sample SCc1ccc(-c2ccc(CS)cc2)cc1 , system: SK-OV-3. Its GI50 is 17.6 µM (inactive)

Sample O=C1C2c3[nH]c4ccccc4c3C3CCCCCC3C2C(=O)N1c1ccccc1 (stereo unspecified) , system: SK-OV-3. Its GI50 is 15.9 µM (inactive)

Sample COc1ccc(CNc2nc3cc(C(F)(F)F)ccc3nc2C(=O)O)cc1OC , system: SK-OV-3. Its GI50 is 29.7 µM (inactive)

Sample COc1cc(C2SCC(=O)N2Cc2ccccc2)cc(OC)c1OC (stereo unspecified) , system: SK-OV-3. Its GI50 is > 100 µM (inactive)

* * *

# System: SW-620
# ASSAY_REMARKS: NCI tumour cell line growth inhibition, 48 h
Calls of active or inactive are those of the source. Cut-off read from the data, not from the text of the source: active = GI50 up to about 1.1 µM and inactive = higher.
Your reply should match one of these outcome classes. active, inactive

Q: For this molecule, state the assay outcome: COc1cccc([C@@H]2C/C(=N\NC(=O)C(=O)N[C@@H](C)c3ccccc3)c3ccccc3N2)c1
Result: inactive

Q: For this molecule, state the assay outcome: Fc1nc(F)nc(-c2c3ccccc3c3n2CCS3)n1
Result: inactive

Q: For this molecule, state the assay outcome: Cc1nn(-c2ccccc2)c2c1C(c1ccc(Cl)cc1)NC(=S)N2 (stereo unspecified)
Result: inactive

Q: For this molecule, state the assay outcome: CC#CC#C/C=C1\C=CC2(OC=CC2O)O1 (stereo unspecified)
Result: inactive

Q: For this molecule, state the assay outcome: Clc1ccc2nc(-c3ccccc3)nc(Cl)c2c1
Result: inactive

Q: For this molecule, state the assay outcome: Cc1ccc(S(=O)(=O)NC(=O)Nc2c(S(N)(=O)=O)cc(S(N)(=O)=O)c(Cl)c2Cl)cc1
Result: inactive

Q: For this molecule, state the assay outcome: CCOC(=O)c1csc(C(CSCc2ccc(OC)cc2)N2C(=O)c3ccccc3C2=O)n1 (stereo unspecified)
Result: inactive

Q: For this molecule, state the assay outcome: Cc1cc(C)nc(NS(=O)(=O)c2ccc(Nc3c4ccc(Cl)cc4nc4c(C(=O)NCCN(C)C)cccc34)cc2)n1
Result: inactive

Q: For this molecule, state the assay outcome: CCCC(=O)Nc1cc(/C=C/C(=O)N2CC(CCl)c3c2cc([N+](=O)[O-])c2ccccc32)n(C)c1 (stereo unspecified)
Result: inactive

Q: For this molecule, state the assay outcome: C=C1CC(OC)(C(OC)C(=O)N(C)[C@H]2OCO[C@H]3C2O[C@H](C[C@@H](COC)OC)C(C)(C)C3OC)O[C@H](C)[C@@H]1C (stereo partly specified)
Result: inactive

Q: For this molecule, state the assay outcome: CCc1ccc(Nc2cc(=O)[nH]c(SCc3ccccc3)n2)cc1
Result: inactive

Q: For this molecule, state the assay outcome: C1=CC2C(C3CN(c4ccccc4)N=C13)C1C3C4C=CC21C=CC43 (stereo unspecified)
Result: inactive

Q: For this molecule, state the assay outcome: COc1ccc2c(c1)[n+]([O-])c1cc(C#N)ccc1[n+]2[O-]
Result: inactive

Q: For this molecule, state the assay outcome: CCN(CC)CCCC(C)Nc1ccnc2cc3ccccc3cc12 (stereo unspecified)
Result: inactive

Q: For this molecule, state the assay outcome: CC1=C(C(=O)OCc2ccncc2)C(C2=C(C)SCCS2)C(C(=O)OCc2ccncc2)=C(C)N1
Result: inactive

Q: For this molecule, state the assay outcome: O=C(OCCCl)C1OC(n2cc(F)c(=O)[nH]c2=O)CC1O (stereo unspecified)
Result: inactive

Q: For this molecule, state the assay outcome: COc1c(C(C)(C)C)cc(CC2C(=O)C=CC2=O)cc1C(C)(C)C
Result: inactive

Q: For this molecule, state the assay outcome: COC1=CC(=O)[C@]2(C)[C@H](C1=O)C(C)[C@H]2c1ccc(OC)cc1 (stereo partly specified)
Result: inactive

Q: For this molecule, state the assay outcome: CNCc1cc(OC)ccc1-c1ccc(OC)c(OC)c1OC
Result: inactive

Q: For this molecule, state the assay outcome: O=C(Nc1ccc2nc(O)n[n+]([O-])c2c1)C(F)(F)F
Result: inactive

Q: For this molecule, state the assay outcome: N=c1oc2ccccc2cc1-c1nc2ccccc2[nH]1
Result: inactive

Q: For this molecule, state the assay outcome: COc1ccc(-c2nc(SCC(=O)NNC(=S)Nc3ccccc3)[nH]c2-c2ccc(OC)cc2)cc1
Result: inactive

Q: For this molecule, state the assay outcome: CCOC(=O)C(CC/C=C\c1ccccc1)N1CCC[C@H]1C(=O)OC (stereo partly specified)
Result: inactive

Q: For this molecule, state the assay outcome: Cn1c(N/N=C/c2ccc(Cl)cc2)nc(-c2ccc(Cl)cc2)c(C#N)c1=O
Result: inactive

Q: For this molecule, state the assay outcome: COC(=O)CC(SCCO)SCCO
Result: inactive

Q: For this molecule, state the assay outcome: CCOC(=O)CCCn1cc(C(=O)OC)nn1
Result: inactive

Q: For this molecule, state the assay outcome: O=C1C2c3[nH]c4ccccc4c3C3CCCCCC3C2C(=O)N1c1ccccc1 (stereo unspecified)
Result: inactive

Q: For this molecule, state the assay outcome: Cc1c(C#N)c(=O)[nH]c(=O)n1CCN1CCN(C(=O)NCCCCCCNC(=O)N2CCN(CCn3c(C)c(C#N)c(=O)[nH]c3=O)CC2)CC1
Result: inactive

Q: For this molecule, state the assay outcome: Cc1cccc(-c2nnc3s/c(=C\c4ccc(N(C)C)cc4)c(=O)n23)c1
Result: inactive

Q: For this molecule, state the assay outcome: N#C/C(=C/n1c(=S)[nH]c2ccccc21)C(N)=O
Result: inactive

Q: For this molecule, state the assay outcome: CCOC(=O)CC[C@H](N)C(=O)N[C@H](Cc1ccc(N(CCCl)CCCl)cc1)C(=O)OCC
Result: inactive

Q: For this molecule, state the assay outcome: COc1c(C)c(C/C=C(\C)CC/C=C(\C)CC/C=C(\C)CCC=C(C)C)c(OC)c2ccccc12
Result: inactive

Q: For this molecule, state the assay outcome: CCCCC(=O)NC1(c2cc3ccccc3s2)CCCCC1
Result: inactive

Q: For this molecule, state the assay outcome: COC(=O)/C=C(/OC)[C@H](C)[C@H](/C=C/c1csc(-c2csc(C(C)C)n2)n1)OC
Result: active

Q: For this molecule, state the assay outcome: C[Si](C)(C)/C=C/CCC(C=O)(CCCl)c1ccccc1 (stereo unspecified)
Result: inactive

Q: For this molecule, state the assay outcome: CN1CCC(c2c(O)cc(O)c3c(=O)cc(-c4ccccc4Cl)oc23)C(O)C1 (stereo unspecified)
Result: active

* * *

Kindly state GI50 for each of the entries shown.
# Test system: RXF 393
# ASSAY_REMARKS: NCI tumour cell line growth inhibition, 48 h
Calls of active or inactive are those of the source. Cut-off read from the data, not from the text of the source: active = GI50 up to about 1.1 µM and inactive = higher.

Recorded result, N=c1oc2ccc([N+](=O)[O-])cc2cc1C(=O)Nc1ccccn1 , GI50: 31.2 µM (inactive)

Recorded result, S=C1CC(c2ccc(Cl)cc2)Sc2ccccc2N1 (configuration not stated) , GI50: 16.2 µM (inactive)

Recorded result, C=C(Cl)C(C)(Cl)CCC(Cl)C(C)(C)Cl (configuration not stated) , GI50: 35.1 µM (inactive)

Recorded result, CCCN1C(=O)CN(S(=O)(=O)c2ccc(Cl)cc2)C1=O , GI50: > 100 µM (inactive)

Recorded result, CSC1=C(C(=O)Nc2ccccc2)C(N)=NC1=O , GI50: 79.3 µM (inactive)

Recorded result, CSC1=C(c2ccc(Cl)cc2)SC(N2CCCCC2)N1c1ccc([N+](=O)[O-])cc1 (configuration not stated) , GI50: > 100 µM (inactive)

Recorded result, COC(=O)CC(SCCO)SCCO , GI50: > 100 µM (inactive)

Recorded result, COc1ccc2cccc(C(=N)c3ccc(C)c4c3CCC4)c2c1 , GI50: 12.8 µM (inactive)

Recorded result, O=C(O)CSc1nnc(/C=C/c2ccccc2)[nH]1 , GI50: > 100 µM (inactive)

Recorded result, Fc1ccc(-c2sc(-c3cccs3)cc2Cc2cccs2)cc1 , GI50: 50.6 µM (inactive)

Recorded result, COc1c(C)c(C/C=C(\C)CC/C=C(\C)CC/C=C(\C)CCC=C(C)C)c(OC)c2ccccc12 , GI50: > 100 µM (inactive)

Recorded result, N=c1oc2ccccc2cc1-c1nc2ccccc2[nH]1 , GI50: 38.9 µM (inactive)

Recorded result, CSC1(C(=O)O)C2CCC3C2CCC31 (configuration not stated) , GI50: > 100 µM (inactive)

Recorded result, CN(C)CCCNC(=O)c1c(-c2cccnc2)cnc2ccccc12 , GI50: > 100 µM (inactive)

Recorded result, COC(=O)C(=O)C(C(=O)C(=O)Nc1ccccc1C(N)=O)c1nc2ccc(Cl)cc2nc1O (configuration not stated) , GI50: > 100 µM (inactive)

Recorded result, Cn1c2ccccc2c(=O)c2c([N+](=O)[O-])ccc(NCCN)c21 , GI50: 9.62 µM (inactive)

Recorded result, C/C(=N/NC(=S)N1CCCCC1)c1cccc(/C(C)=N\NC(=S)N2CCCCC2)n1 , GI50: 2.26 µM (inactive)

Recorded result, COC(=O)c1cc2c3c(c(C(C)=O)c(OC)c2[nH]1)NCC3 , GI50: > 50 µM (inactive)

Recorded result, COc1cccc2c1C(=N)c1c(O)c3c(c(O)c1C2=O)C[C@@](O)(C(C)=O)C[C@@H]3OC1CC(N)C(O)C(C)O1 (some centres not stated) , GI50: 1.23 µM (inactive)

Recorded result, COc1ccc(N2C(=O)CC(=O)N(C(=O)CCCCCCCCC(=O)N3C(=O)CC(=O)N(c4ccc(OC)cc4)C3=S)C2=S)cc1 , GI50: > 100 µM (inactive)

Recorded result, COC(=O)C1C(OC(=O)C(Cl)(c2ccccc2)c2ccccc2)CC2CCC1N2C (configuration not stated) , GI50: > 100 µM (inactive)

Recorded result, O=C1c2ccccc2C2(O)Nc3cc(O)ccc3C12O (configuration not stated) , GI50: > 100 µM (inactive)
